- targetUnderTest: IκBα-kinase complex (Homo sapiens, UniProt O14920+O15111)
- Construct: endogenous in cells; host or cells: HeLa S3 cell extract, S100 fraction; ammonium sulfate precipitation and Superose-6 size exclusion
- Sequence (O14920 whole entry): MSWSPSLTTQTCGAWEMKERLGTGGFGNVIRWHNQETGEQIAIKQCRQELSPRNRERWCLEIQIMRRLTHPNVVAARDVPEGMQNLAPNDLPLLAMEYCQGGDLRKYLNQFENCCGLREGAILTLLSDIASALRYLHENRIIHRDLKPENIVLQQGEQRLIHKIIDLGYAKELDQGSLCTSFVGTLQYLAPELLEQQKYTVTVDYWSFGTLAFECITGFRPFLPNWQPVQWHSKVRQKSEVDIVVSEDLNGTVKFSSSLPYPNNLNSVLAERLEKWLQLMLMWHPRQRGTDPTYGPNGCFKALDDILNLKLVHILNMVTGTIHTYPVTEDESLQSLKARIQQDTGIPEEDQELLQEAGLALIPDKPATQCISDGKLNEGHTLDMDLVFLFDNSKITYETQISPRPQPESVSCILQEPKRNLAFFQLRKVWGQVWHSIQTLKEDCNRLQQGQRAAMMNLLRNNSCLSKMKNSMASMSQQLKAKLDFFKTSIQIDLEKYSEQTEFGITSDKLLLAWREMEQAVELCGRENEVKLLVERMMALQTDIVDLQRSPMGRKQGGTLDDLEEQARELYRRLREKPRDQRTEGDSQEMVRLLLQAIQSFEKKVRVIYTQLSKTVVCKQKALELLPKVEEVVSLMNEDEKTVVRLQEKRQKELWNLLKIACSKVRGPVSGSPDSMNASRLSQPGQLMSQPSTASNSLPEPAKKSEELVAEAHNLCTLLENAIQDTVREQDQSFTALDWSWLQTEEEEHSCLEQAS
- Sequence (O15111 whole entry): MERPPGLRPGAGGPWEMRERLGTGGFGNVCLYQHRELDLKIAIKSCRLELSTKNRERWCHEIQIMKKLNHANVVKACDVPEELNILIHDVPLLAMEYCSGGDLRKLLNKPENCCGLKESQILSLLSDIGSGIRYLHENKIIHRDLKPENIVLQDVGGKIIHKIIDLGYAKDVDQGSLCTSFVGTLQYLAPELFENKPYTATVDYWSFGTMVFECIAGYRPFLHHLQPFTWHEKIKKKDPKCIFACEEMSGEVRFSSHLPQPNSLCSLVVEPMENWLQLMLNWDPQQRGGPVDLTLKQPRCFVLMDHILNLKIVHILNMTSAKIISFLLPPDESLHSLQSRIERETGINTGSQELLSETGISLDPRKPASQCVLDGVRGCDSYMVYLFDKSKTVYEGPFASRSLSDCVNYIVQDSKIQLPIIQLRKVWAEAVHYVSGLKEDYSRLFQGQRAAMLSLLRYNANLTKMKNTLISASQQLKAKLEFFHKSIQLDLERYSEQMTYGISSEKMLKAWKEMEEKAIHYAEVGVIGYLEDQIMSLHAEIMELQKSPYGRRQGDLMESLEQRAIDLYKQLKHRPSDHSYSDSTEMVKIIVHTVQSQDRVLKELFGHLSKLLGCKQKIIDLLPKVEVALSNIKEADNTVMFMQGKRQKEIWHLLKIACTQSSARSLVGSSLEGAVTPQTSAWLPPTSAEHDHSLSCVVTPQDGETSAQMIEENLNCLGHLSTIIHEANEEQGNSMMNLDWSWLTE
- Sequence (Q9Y6K9 whole entry partner): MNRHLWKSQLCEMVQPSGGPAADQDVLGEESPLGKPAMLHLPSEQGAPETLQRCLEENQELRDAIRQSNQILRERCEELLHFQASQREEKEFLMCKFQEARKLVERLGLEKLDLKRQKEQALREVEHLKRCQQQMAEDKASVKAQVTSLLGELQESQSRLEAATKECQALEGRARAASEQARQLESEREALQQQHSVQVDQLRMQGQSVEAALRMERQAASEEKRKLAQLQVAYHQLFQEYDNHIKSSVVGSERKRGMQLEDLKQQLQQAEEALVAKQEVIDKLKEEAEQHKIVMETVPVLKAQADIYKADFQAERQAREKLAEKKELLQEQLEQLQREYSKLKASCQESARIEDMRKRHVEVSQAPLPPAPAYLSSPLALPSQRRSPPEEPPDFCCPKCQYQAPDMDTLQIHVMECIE
- testDetails: IkB-Kinase ELISA;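 further: substrate phosphopeptide captured on Protein-A plates, detected with Streptavidin-HRP and TMB absorbance at 450 nm, activity read from a synthetic phosphopeptide standard curve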
- Assay type: biochemical
- conditionSet: activated IκBα kinase complex from HeLa S3 cell extracts; ELISA; read-out: IkB-kinase IC50
metric: IC50 (nM)

Nc1cc(Cl)cc2c1[nH]c1cnccc12 [Example 15] = 800
Fc1cc2[nH]c3cnccc3c2cc1Cl [Example 34] = 1000

(I) COc1c(N)cc2c([nH]c3cnccc32)c1Cl [Example 95]
(II) O=C(Nc1cc(Cl)cc2c1[nH]c1cnccc12)c1ccncc1 [Example 56]
(III) NC(=O)Cn1c2ccc(Cl)cc2c2ccncc21 [Example 22]
Problem: # desc sort on IC50 across 3 molecules // respond by listing labels in the order requested
Solution: III, I, II
